# System: T1, chimeric human p-selectin (human, UniProt P16109 42-321)
# T1 construct: also called human P-selectin-IgG
# T1 sequence (looked up): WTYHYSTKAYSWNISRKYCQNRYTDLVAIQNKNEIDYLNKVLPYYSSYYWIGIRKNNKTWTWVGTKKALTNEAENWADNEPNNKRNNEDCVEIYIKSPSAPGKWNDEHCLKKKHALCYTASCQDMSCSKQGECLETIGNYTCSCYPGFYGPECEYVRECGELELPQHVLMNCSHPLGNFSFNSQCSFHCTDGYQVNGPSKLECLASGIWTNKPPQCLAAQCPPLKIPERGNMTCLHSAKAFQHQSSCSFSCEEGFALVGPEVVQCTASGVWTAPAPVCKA
# Assay Summary: affinity to human P-selectin, prepared and tested as in example 1 (competition ELISA against TM11-strepPO complex); column head 'Affinity [µM]'
No end group written: not given here. *: point of attachment. Biotin = O=C1N[C@H]2[C@H](CS[C@H]2CCCCC(=O)*)N1; Ahx = NCCCCCC(=O)O
Measure Name: IC50 (mM)

P = {Biotin-Ahx}-EWVKVA (Comparative compound)
Q = {Biotin-Ahx}-DVEWADVS (Comparative compound)
Q: Sorting ascending by IC50, which comes first: P or Q ? Mark your answer with the label of the selected entry.
Result: Q

P = {Biotin-Ahx}-DVEWVAVS (Comparative compound)
Q = {Biotin-Ahx}-DVEAVDVS (Comparative compound)
R = {Biotin-Ahx}-DVEWVDAS (Comparative compound)
Q: Returns the items ordered by IC50, from maximum to minimum. I'd appreciate it if you listed the labels in the requested order.
Result: Q, P, R
